Value source: BigSolDB 2.1

conditions: in cyclopentyl methyl ether, 319.75 K
Assay metric: solubility (mole fraction)
Give the value as a plain number.

stdin: Supply recorded solubility (mole fraction) for "O=C(Oc1ccccc1C(=O)O)c1ccccc1O" here.
stdout: 0.148

* * *

conditions: in 1,4-dioxane, 317.75 K
Assay metric: solubility (mole fraction)

stdin: Supply recorded solubility (mole fraction) for "Nc1ccc(C(=O)O)cc1" here.
stdout: 0.108

* * *

conditions: in toluene, 294.25 K
Assay metric: solubility (mole fraction)

stdin: Supply recorded solubility (mole fraction) for "c1ccc2nc3ccccc3nc2c1" here.
stdout: 0.022

* * *

details: in cyclopentyl methyl ether, 318.25 K
Assay metric: solubility (mole fraction)
Give the value as a plain number.

stdin: Supply recorded solubility (mole fraction) for "c1ccc2nc3ccccc3nc2c1" here.
stdout: 0.039

* * *

conditions: in cyclopentyl methyl ether, 331.45 K
Assay metric: solubility (mole fraction)
Give the value as a plain number.

stdin: Supply recorded solubility (mole fraction) for "NC(=O)N1c2ccccc2C=Cc2ccccc21" here.
stdout: 0.004

* * *

Provide the reported solubility (mole fraction) of each item.
settings: in 1,4-dioxane, 319.95 K
Give the value as a plain number.

stdin: Supply recorded solubility (mole fraction) for "O=C(O)c1ccc(O)cc1" here.
stdout: 0.119

stdin: Supply recorded solubility (mole fraction) for "NC(=O)N1c2ccccc2C=Cc2ccccc21" here.
stdout: 0.032

* * *

details: in cyclopentyl methyl ether, 326.85 K
Assay metric: solubility (mole fraction)
Give the value as a plain number.

stdin: Supply recorded solubility (mole fraction) for "c1ccc2nc3ccccc3nc2c1" here.
stdout: 0.047

* * *

settings: in toluene, 297.95 K
Assay metric: solubility (mole fraction)

stdin: Supply recorded solubility (mole fraction) for "c1ccc2nc3ccccc3nc2c1" here.
stdout: 0.025

* * *

details: in 1,4-dioxane, 312.05 K
Assay metric: solubility (mole fraction)
Give the value as a plain number.

stdin: Supply recorded solubility (mole fraction) for "CC(=O)Oc1ccccc1C(=O)O" here.
stdout: 0.171

* * *

conditions: in cyclopentyl methyl ether, 330.55 K
Assay metric: solubility (mole fraction)
Give the value as a plain number.

stdin: Supply recorded solubility (mole fraction) for "O=C(O)c1ccccc1O" here.
stdout: 0.28

* * *

settings: in toluene, 332.15 K
Assay metric: solubility (mole fraction)
Give the value as a plain number.

stdin: Supply recorded solubility (mole fraction) for "NC(=O)N1c2ccccc2C=Cc2ccccc21" here.
stdout: 0.005

* * *

details: in cyclopentyl methyl ether, 337.25 K
Assay metric: solubility (mole fraction)
Give the value as a plain number.

stdin: Supply recorded solubility (mole fraction) for "O=C(O)c1ccccc1O" here.
stdout: 0.299

* * *

details: in 1,4-dioxane, 304.55 K
Assay metric: solubility (mole fraction)

stdin: Supply recorded solubility (mole fraction) for "Nc1ccccc1C(=O)O" here.
stdout: 0.275

* * *

conditions: in 1,4-dioxane, 325.75 K
Assay metric: solubility (mole fraction)
Give the value as a plain number.

stdin: Supply recorded solubility (mole fraction) for "CC(=O)Oc1ccccc1C(=O)O" here.
stdout: 0.218

* * *

conditions: in 1,4-dioxane, 327.95 K
Assay metric: solubility (mole fraction)

stdin: Supply recorded solubility (mole fraction) for "NC(=O)N1c2ccccc2C=Cc2ccccc21" here.
stdout: 0.043

* * *

conditions: in cyclopentyl methyl ether, 310.05 K
Assay metric: solubility (mole fraction)
Give the value as a plain number.

stdin: Supply recorded solubility (mole fraction) for "c1ccc2nc3ccccc3nc2c1" here.
stdout: 0.029

* * *

details: in toluene, 327.15 K
Assay metric: solubility (mole fraction)

stdin: Supply recorded solubility (mole fraction) for "CC(=O)Oc1ccccc1C(=O)O" here.
stdout: 0.011

* * *

details: in toluene, 322.25 K
Assay metric: solubility (mole fraction)
Give the value as a plain number.

stdin: Supply recorded solubility (mole fraction) for "Nc1ccccc1C(=O)O" here.
stdout: 0.024

* * *

settings: in 1,4-dioxane, 313.35 K
Assay metric: solubility (mole fraction)
Give the value as a plain number.

stdin: Supply recorded solubility (mole fraction) for "NC(=O)c1cccnc1" here.
stdout: 0.031

* * *

details: in toluene, 325.35 K
Assay metric: solubility (mole fraction)

stdin: Supply recorded solubility (mole fraction) for "NC(=O)N1c2ccccc2C=Cc2ccccc21" here.
stdout: 0.004

* * *

details: in 1,4-dioxane, 303.25 K
Assay metric: solubility (mole fraction)
Give the value as a plain number.

stdin: Supply recorded solubility (mole fraction) for "O=C(O)c1ccc([N+](=O)[O-])cc1" here.
stdout: 0.048

* * *

Provide the reported solubility (mole fraction) of each item.
conditions: in 1,4-dioxane, 308.85 K
Give the value as a plain number.

stdin: Supply recorded solubility (mole fraction) for "c1ccc2nc3ccccc3nc2c1" here.
stdout: 0.038

stdin: Supply recorded solubility (mole fraction) for "O=C(O)c1cccc(O)c1" here.
stdout: 0.194

* * *

details: in cyclopentyl methyl ether, 327.75 K
Assay metric: solubility (mole fraction)

stdin: Supply recorded solubility (mole fraction) for "O=C(Oc1ccccc1C(=O)O)c1ccccc1O" here.
stdout: 0.166

* * *

details: in cyclopentyl methyl ether, 323.25 K
Assay metric: solubility (mole fraction)

stdin: Supply recorded solubility (mole fraction) for "O=C(Oc1ccccc1C(=O)O)c1ccccc1O" here.
stdout: 0.156

* * *

conditions: in 1,4-dioxane, 316.75 K
Assay metric: solubility (mole fraction)
Give the value as a plain number.

stdin: Supply recorded solubility (mole fraction) for "O=C(O)c1cccc(O)c1" here.
stdout: 0.211

* * *

settings: in 1,4-dioxane, 301.45 K
Assay metric: solubility (mole fraction)

stdin: Supply recorded solubility (mole fraction) for "NC(=O)c1ccncc1" here.
stdout: 0.015

* * *

conditions: in toluene, 323.45 K
Assay metric: solubility (mole fraction)

stdin: Supply recorded solubility (mole fraction) for "O=C(O)c1ccccc1O" here.
stdout: 0.017

* * *

details: in 1,4-dioxane, 319.35 K
Assay metric: solubility (mole fraction)
Give the value as a plain number.

stdin: Supply recorded solubility (mole fraction) for "O=C(O)c1ccc([N+](=O)[O-])cc1" here.
stdout: 0.08

* * *

conditions: in cyclopentyl methyl ether, 308.15 K
Assay metric: solubility (mole fraction)
Give the value as a plain number.

stdin: Supply recorded solubility (mole fraction) for "NC(=O)N1c2ccccc2C=Cc2ccccc21" here.
stdout: 0.002

* * *

details: in toluene, 312.65 K
Assay metric: solubility (mole fraction)
Give the value as a plain number.

stdin: Supply recorded solubility (mole fraction) for "Nc1ccccc1C(=O)O" here.
stdout: 0.015

* * *

settings: in 1,4-dioxane, 306.05 K
Assay metric: solubility (mole fraction)
Give the value as a plain number.

stdin: Supply recorded solubility (mole fraction) for "c1ccc2nc3ccccc3nc2c1" here.
stdout: 0.034

* * *

conditions: in toluene, 332.25 K
Assay metric: solubility (mole fraction)
Give the value as a plain number.

stdin: Supply recorded solubility (mole fraction) for "O=C(O)c1ccccc1O" here.
stdout: 0.025

* * *

conditions: in 1,4-dioxane, 318.75 K
Assay metric: solubility (mole fraction)
Give the value as a plain number.

stdin: Supply recorded solubility (mole fraction) for "c1ccc2nc3ccccc3nc2c1" here.
stdout: 0.049

stdin: Supply recorded solubility (mole fraction) for "O=C(O)c1cccc(O)c1" here.
stdout: 0.214

* * *

conditions: in toluene, 308.85 K
Assay metric: solubility (mole fraction)
Give the value as a plain number.

stdin: Supply recorded solubility (mole fraction) for "Nc1ccccc1C(=O)O" here.
stdout: 0.013

* * *

conditions: in 1,4-dioxane, 309.95 K
Assay metric: solubility (mole fraction)

stdin: Supply recorded solubility (mole fraction) for "NC(=O)c1cccnc1" here.
stdout: 0.027

* * *

conditions: in 1,4-dioxane, 317.65 K
Assay metric: solubility (mole fraction)

stdin: Supply recorded solubility (mole fraction) for "CC(=O)Oc1ccccc1C(=O)O" here.
stdout: 0.191

* * *

settings: in 1,4-dioxane, 315.45 K
Assay metric: solubility (mole fraction)
Give the value as a plain number.

stdin: Supply recorded solubility (mole fraction) for "NC(=O)c1cccnc1" here.
stdout: 0.033

* * *

settings: in toluene, 330.15 K
Assay metric: solubility (mole fraction)
Give the value as a plain number.

stdin: Supply recorded solubility (mole fraction) for "CC(=O)Oc1ccccc1C(=O)O" here.
stdout: 0.014

* * *

settings: in 1,4-dioxane, 314.05 K
Assay metric: solubility (mole fraction)
Give the value as a plain number.

stdin: Supply recorded solubility (mole fraction) for "NC(=O)c1ccncc1" here.
stdout: 0.024
